molecular target: GABAA/α1 (α1β3γ2 GABAA receptors) (Homo sapiens, UniProt P14867+P18507); construct: expressed in transfected cells; experiment: Competitive binding assay, [3H]flunitrazepam; conditions: αxβ3γ2, [3H]flunitrazepam competition; read-out: Binding Affinity at GABAA/α1
endpoint: pKi
Entry type: numeric. Quantity: pKi, the -log10 of concentration in molar units.

# input-smiles, pKi
rows = [
    ("C#Cc1ccc2c(c1)C(c1cccs1)=NCc1c(C(=O)OCC)ncn1-2", 6.84),
]

Consider the record given below.
[ask] Please report pKi for the following molecule: C#Cc1ccc2c(c1)C(c1ccccc1)=NCC(=O)N2C
[reply] 7.12
